// note: IC50 values for Amine oxidase [flavin-containing] B (Rattus norvegicus, UniProt P19643) were reported in different studies
Biological target: Amine oxidase [flavin-containing] B (Rattus norvegicus, UniProt P19643)
Sequence (P19643 whole entry): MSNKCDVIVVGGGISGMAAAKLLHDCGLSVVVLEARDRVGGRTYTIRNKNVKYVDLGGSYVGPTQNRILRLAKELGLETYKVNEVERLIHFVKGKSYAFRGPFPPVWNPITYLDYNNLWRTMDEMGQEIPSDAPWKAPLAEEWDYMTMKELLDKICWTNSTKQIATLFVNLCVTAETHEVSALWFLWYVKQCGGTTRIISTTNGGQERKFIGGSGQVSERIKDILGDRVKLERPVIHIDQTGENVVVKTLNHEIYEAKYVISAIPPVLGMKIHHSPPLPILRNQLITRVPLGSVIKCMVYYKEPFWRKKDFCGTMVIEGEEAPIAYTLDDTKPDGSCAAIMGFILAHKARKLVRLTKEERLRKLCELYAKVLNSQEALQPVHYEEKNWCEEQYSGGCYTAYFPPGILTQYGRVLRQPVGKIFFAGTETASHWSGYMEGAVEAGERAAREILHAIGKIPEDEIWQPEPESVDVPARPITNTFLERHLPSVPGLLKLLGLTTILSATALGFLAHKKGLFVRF
Observed Property: IC50 (µM)

a = O=C1c2ccccc2-c2nncc(-c3ccccc3)c21
b = O=C1c2ccccc2-c2nnc3c(c21)CCc1ccccc1-3
Of a and b , whose reported IC50 is numerically smaller? Answer with the label corresponding to your selection.
b

1 = NC(=O)[C@@H](NCc1ccc(OCc2cccc(Cl)c2)cc1)c1ccccc1
2 = O=C(CCCc1ccccc1)Nc1nc2sccc2c(=O)s1
Of 1 and 2 , whose reported IC50 is numerically smaller? Answer with the label corresponding to your selection.
2
(2: 0.291 µM, 1: 10.1 µM)

* * *

// note: IC50 values for Amine oxidase [flavin-containing] B (Rattus norvegicus) were reported in different studies
Observed Property: IC50 (nM)

// known answers, use as guide
C[C@H](NCc1ccc(OCc2cccc(Cl)c2)cc1)C(N)=O	33
CNC(=S)N1NC2=C(CCCC2)C1c1cccs1 (stereo unspecified)	2610

a = O=C(OCc1ccc2ccc(=O)oc2c1)c1ccccc1
b = N#CCCc1cc(=O)oc2cc(OCc3cccc(Cl)c3)ccc12
Which entry has a larger number for IC50, a or b ? Answer with the label corresponding to your selection.
a

A = NNC(=O)Cc1cc(=O)oc2cc(OCc3cccc(Cl)c3)ccc12
B = CC(=O)N[C@H]1CC(=O)N(c2ccc(OCc3cccc(F)c3)cc2)C1
Of A and B , whose reported IC50 is numerically smaller? Answer with the label corresponding to your selection.
B
(B: 14.7 nM, A: 90 nM)

I = O=C(C/C=C/c1ccccc1)Nc1nc2ccccc2c(=O)s1
II = O=S1(=O)c2ccccc2Oc2cccc(C(O)CO)c21 (stereo in doubt; 45)
III = COc1ccc2c(c1)C(=O)/C(=C/c1ccccc1OC)O2
IV = COc1ccccc1NC(=S)N1N=C(c2ccccc2O)CC1c1ccc(O)cc1 (stereo unspecified)
Exam item: list the entries in increasing order of IC50. # list labels per requested ordering
I, III, II, IV
(I: 361 nM, III: 11600 nM, II: 30000 nM, IV: 144000 nM)

* * *

// note: pIC50 values for Amine oxidase [flavin-containing] B (Rattus norvegicus, UniProt P19643) were reported in different studies
Biological target: Amine oxidase [flavin-containing] B (Rattus norvegicus, UniProt P19643)
Sequence (P19643 whole entry): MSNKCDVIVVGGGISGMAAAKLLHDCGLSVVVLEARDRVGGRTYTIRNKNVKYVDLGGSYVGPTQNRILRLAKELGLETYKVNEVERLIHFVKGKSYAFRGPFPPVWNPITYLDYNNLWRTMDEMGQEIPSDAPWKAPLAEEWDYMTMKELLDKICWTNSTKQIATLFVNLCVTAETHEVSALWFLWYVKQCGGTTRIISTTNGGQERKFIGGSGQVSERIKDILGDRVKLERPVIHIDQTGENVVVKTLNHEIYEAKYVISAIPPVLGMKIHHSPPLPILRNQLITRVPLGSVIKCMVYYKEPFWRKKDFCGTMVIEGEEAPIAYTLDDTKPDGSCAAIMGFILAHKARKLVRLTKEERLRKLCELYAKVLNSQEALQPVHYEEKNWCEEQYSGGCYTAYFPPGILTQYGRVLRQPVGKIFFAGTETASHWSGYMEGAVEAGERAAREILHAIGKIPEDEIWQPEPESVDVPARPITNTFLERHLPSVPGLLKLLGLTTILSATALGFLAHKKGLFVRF
pIC50: −log10 of the molar value.
Observed Property: pIC50

Cc1c(C)c2ccc(CCc3ccccc3)cc2oc1=O	6.34
O=c1ccc2cc(OCc3ccccc3)c(O)cc2o1	5.69
CN(C)C(=O)Cc1cc(=O)oc2cc(OCc3ccccc3)ccc12	6.40
NC(=O)Cc1cc(=O)oc2cc(OCc3cccc(O)c3)ccc12	6.00

I = O=C(CCl)Nc1cc(=O)oc2cc(OCc3cccc(Cl)c3)ccc12
II = O=C(NCCCN1CCOCC1)c1cnccc1Cl
Which entry has a larger number for pIC50, I or II ? Answer with the label corresponding to your selection.
I
(I: 6.40, II: 4.28)

* * *

// note: IC50 values for Amine oxidase [flavin-containing] B (Rattus norvegicus, UniProt P19643) were reported in different studies
Molecular target: Amine oxidase [flavin-containing] B (Rattus norvegicus, UniProt P19643)
Sequence (P19643 whole entry): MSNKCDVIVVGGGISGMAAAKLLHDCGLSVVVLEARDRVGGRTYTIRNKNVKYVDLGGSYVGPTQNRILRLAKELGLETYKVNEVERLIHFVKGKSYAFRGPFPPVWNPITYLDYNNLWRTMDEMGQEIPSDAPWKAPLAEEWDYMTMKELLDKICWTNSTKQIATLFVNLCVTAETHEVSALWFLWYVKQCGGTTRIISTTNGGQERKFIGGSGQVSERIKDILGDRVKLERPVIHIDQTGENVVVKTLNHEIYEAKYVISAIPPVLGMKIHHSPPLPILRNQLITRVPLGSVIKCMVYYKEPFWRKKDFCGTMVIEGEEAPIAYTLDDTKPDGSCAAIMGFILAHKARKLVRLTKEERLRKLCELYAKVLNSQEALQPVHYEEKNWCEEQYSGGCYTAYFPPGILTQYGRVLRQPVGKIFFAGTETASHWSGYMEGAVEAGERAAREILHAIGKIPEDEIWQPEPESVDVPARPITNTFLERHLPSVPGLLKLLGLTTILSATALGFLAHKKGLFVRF
Observed Property: IC50 (nM)

// known answers, use as guide
O=C(CCCc1ccccc1)Nc1nc2ccsc2c(=O)s1	298
N#CCc1cc(=O)oc2cc(OCc3cccc(Cl)c3)ccc12	16
O=C1c2ccccc2-c2nncc(Cc3ccccc3)c21	50000

A = CNC(=O)Cc1cc(=O)oc2cc(OCc3cccc(Cl)c3)ccc12
B = CNCc1cc(=O)oc2cc(OCc3cccc(Cl)c3)ccc12.CS(=O)(=O)O
C = CCOC(=O)/C=C/C=C/c1ccc2c(c1)OCO2
Please give the order of these compounds when sorted by IC50, largest value leading. # list labels per requested ordering
C, A, B
(C: 330 nM, A: 24 nM, B: 13 nM)

a = CN(Cc1ccccc1)Cc1cc(=O)oc2cc(OCc3cccc(Cl)c3)ccc12
b = CNC(=O)c1ccc2c(c1)S(=O)(=O)c1ccccc1C2O (configuration not stated)
Of a and b , whose reported IC50 is numerically smaller? Answer with the label corresponding to your selection.
b

a = CN(C)Cc1cc(=O)oc2cc(OCc3cccc(F)c3)ccc12
b = CNCCNc1nc2ccccc2nc1Cc1ccccc1
Of a and b , whose reported IC50 is numerically smaller? Answer with the label corresponding to your selection.
a

* * *

// note: IC50 values for Amine oxidase [flavin-containing] B (Rattus norvegicus, UniProt P19643) were reported in different studies

// known answers, use as guide
O=C(NCCN1CCOCC1)c1cccnc1	> 100 µM
CNc1cncc(NC)c1CN	> 170 µM
O=C1c2ccccc2-c2nnc(-c3ccccc3O)cc21	> 1 µM

# context switch: different compound, same IC50
Report measured IC50; entry is "NCc1c(O)cccc1O"
> 1000 µM

* * *

// note: IC50 values for Amine oxidase [flavin-containing] B (Rattus norvegicus, UniProt P19643) were reported in different studies

O=C1c2ccccc2-c2nnc(-c3cc(C(F)(F)F)cc(C(F)(F)F)c3)cc21	> 2 µM
CCCCN(C)C(=O)Cc1cc(=O)oc2cc(OCc3cccc(Cl)c3)ccc12	> 10 µM

# context switch: different molecule, same IC50
Fill in IC50 for "NCc1ccncc1N(C1CCCC1)C1CCCC1" tested with Amine oxidase [flavin-containing] B (Rattus norvegicus, UniProt P19643).
> 100 µM

* * *

// note: IC50 values for Amine oxidase [flavin-containing] B (Rattus norvegicus, UniProt P19643) were reported in different studies

// known answers, use as guide
O=C1c2ccccc2-c2nnc(C(F)(F)F)cc21	> 25 µM
CC(C)C(=O)c1ccc(O)c(O)c1	> 50 µM

Fill in IC50 for "O=C(CCCc1ccccc1)Nc1nc2ccc(Br)cc2c(=O)s1" tested with Amine oxidase [flavin-containing] B (Rattus norvegicus, UniProt P19643).
> 10 µM
